# Test system: MDA-MB-231 breast
# EXPERIMENT SUMMARY: NCI-60 one-dose screen, 48 h (100 = growth as untreated, 0 = no growth, -100 = all killed)
# CONDITIONS: 10 µM unless noted
Compounds without any hit were thinned out: in the full panel of roughly 83,000, 20% have a hit.

COMPOUND SMILES	growth, %
O=C(O)[C@@H]1c2ccccc2-c2ccccc2[C@H]1C(=O)O	105
C#Cc1cccc(Nc2ncnc3ccc(-c4cnc(N)nc4)cc23)c1	12.8
O=C(CSc1nc2sc3c(c2c(=O)n1-c1ccccc1)CCCCC3)N/N=C/c1ccc(F)cc1	-26.1
Cn1c(=O)c2c(nc(NC3=NS(=O)(=O)c4ccccc43)n2CC(=O)N2CCc3ccccc32)n(C)c1=O	94.3
CCNC(=O)c1[nH]cc(-c2ccccc2)c1-c1cc(OC)c2c(c1OC)OCO2	97.2
